Values from patent US20220251562

# STUDY TARGET: CD3 epsilon/delta heterodimer (Homo sapiens, UniProt P07766;P04234 P07766:23-126,P04234:22-105)
# Sequence (P07766 23-126, stated change not applied, chain 1 of 2): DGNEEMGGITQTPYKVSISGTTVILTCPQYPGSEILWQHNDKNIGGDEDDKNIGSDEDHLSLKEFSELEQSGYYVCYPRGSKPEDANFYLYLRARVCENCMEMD
# Sequence (P04234 22-105, stated change not applied, chain 2 of 2): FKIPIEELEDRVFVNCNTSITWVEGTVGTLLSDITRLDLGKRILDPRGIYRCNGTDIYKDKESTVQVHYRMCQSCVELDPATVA
# EXPERIMENT: SPR; steady state; kinetic 3.7 nM (Table 6)
# TEST CONTEXT: tags: C-terminal human IgG1 Fc fusion, AcroBiosystems; chain copies: heterodimer 1:1 (inferred); label: 5'-biotin-TEG
ASSAY ENDPOINT: pKd
pKd (log units): -log10 of the concentration in mol/L.

-- ask Dear colleague, please send me the reported pKd for GCATCGAAATGGGGTTGGCACCGGGCCTGGCGAATTGGAT (ssDNA) [CELTIC_9s] when you can.
-- reply 7.22
